Source: patent US20160024210A1

# reported EC50; entries follow
# ASSAYED TARGET: T1, H7CRECD human IgG1 Fc fusion protein (human, UniProt Q96BF3 23-150)
# T1 construct: also called H7CR fusion protein; not shown: human IgG1 Fc
# T1 sequence: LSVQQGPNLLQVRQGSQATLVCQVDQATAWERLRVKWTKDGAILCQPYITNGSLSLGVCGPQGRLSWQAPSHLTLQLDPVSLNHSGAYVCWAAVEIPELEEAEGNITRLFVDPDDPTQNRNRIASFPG
# ASSAY REMARKS: ELISA, H7CRECD human IgG1 Fc immobilized, anti-human IgG4 HRP detection
# output: numeric value plus its unit

BINDER: human IgG4 Fc chimeric 1.3 antibody (antibody, V domains shown, also called parental chimeric 1.3 antibody) VH: QIQLQESGPGLVKPSQSLSLTCSVTGFSISTSGYYWTWIRQFPGKRLEWMGYINYGGGTSYNPSLKSRISITRDTSKNQFLLHLNSVTTEDTATYCCATMADRFAFFDVWGQGIQVTVSS VL: DIVMTQSPSSLAVSAGEKVTISCLSSQSLFSSNTNRNYLNWYLQKPGQSPKLLIYHASTRLTGVPDRFIGSGSGTDFTLTISSVQAEDLGDYYCQHHYETPLTFGDGTKLEIKR
REPORTED RESULT: 0.055 nM

BINDER: 1.3 humanized variant V10 (heavy 2C / light 1B) (antibody, V domains shown, Variable domains only; detected with anti-human IgG4 HRP) VH: QVQLQESGPGLVKPAQTLSLTCTVSGFSISTSGYYWSWIRQFPGKRLEWMGYINYGGGTSYNPSLKSRVTISRDTSKNQFSLKLTSVTAADTATYCCATMADRFAFFDVWGQGTMVTVSS VL: DIVMTQSPDSLAVSLGERATINCKSSQSLFSSNTNRNYLNWYQQKPGQSPKLLIYHASTRLSGVPDRFSGSGSGTDFTLTISSLQAEDVADYYCQHHYETPLTFGDGTKLEIK
REPORTED RESULT: 1.18 nM

In the following, a different binder is considered.
Could you share which EC50 value was measured for 1.3 humanized variant V7 (heavy 1B / light 1B) (antibody, V domains shown, Variable domains only; detected with anti-human IgG4 HRP) VH: QVQLQESGPGLVKPSQTLSLTCTVSGFSISTSGYYWSWIRQHPGKRLEWIGYINYGGGTSYNPSLKSRVTISRDTSKNQFSLKLSSVTAADTAVYCCATMADRFAFFDVWGQGTMVTVSS VL: DIVMTQSPDSLAVSLGERATINCKSSQSLFSSNTNRNYLNWYQQKPGQSPKLLIYHASTRLSGVPDRFSGSGSGTDFTLTISSLQAEDVADYYCQHHYETPLTFGDGTKLEIK ? 1.01 nM
